Target: Human GLP-1R (Homo sapiens)
Sequence (P43220 24-463): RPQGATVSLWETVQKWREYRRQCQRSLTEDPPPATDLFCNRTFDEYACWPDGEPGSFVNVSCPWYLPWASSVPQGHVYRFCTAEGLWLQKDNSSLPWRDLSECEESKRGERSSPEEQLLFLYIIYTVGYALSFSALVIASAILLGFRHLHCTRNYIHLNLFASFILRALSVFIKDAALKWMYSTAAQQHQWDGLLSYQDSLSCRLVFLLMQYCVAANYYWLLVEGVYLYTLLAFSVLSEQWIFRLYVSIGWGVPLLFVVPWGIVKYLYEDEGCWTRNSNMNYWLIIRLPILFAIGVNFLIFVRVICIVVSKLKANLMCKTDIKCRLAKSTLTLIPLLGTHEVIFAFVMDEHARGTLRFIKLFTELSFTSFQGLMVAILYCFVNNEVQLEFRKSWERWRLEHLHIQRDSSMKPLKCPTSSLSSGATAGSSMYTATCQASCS
Experiment: cAMP level determination in human GLP-1R stably transfected HEK293T cells (HTRF cAMP kit)
Conditions: 37°C 30 min
Experimental: Human GLP-1R HEK293T stably transfected cells were digested with trypsin, terminated with DMEM total (without p/s), centrifuged and washed twice with 1X Stimulation buffer, then resuspended in 1X stimulation buffer and counted. The cells were then prepared as a 1 Million/mL cell suspension in stimulation buffer. […] Stimulation% was calculated based on Min and Max readings (665nm/615nm ratio) using the formula: 100*(ratio Max well - ratio test well)/(ratio Max well - ratio Min well). […]
Each entry belongs to exactly one class, chosen by where its EC50 falls: low group: < 0.01 µM; middle group: ≥ 0.01 µM and < 0.02 µM; high group: ≥ 0.02 µM

Req: // return the class label for Cc1cc(-n2nc3c(c2-n2ccn(-c4ccc(C(=O)N(C)C5(C)CC5)c(F)c4)c2=O)[C@H](C)N(C(=O)c2cc4cc(C5CCOC(C)(C)C5)ccc4n2[C@@]2(c4nc(=O)o[nH]4)C[C@@H]2C)CC3)cc(C)c1F (stereo partly drawn)
Resp: low group

Req: // return the class label for Cc1cc(-n2nc3c(c2-n2ccn(-c4ccc(OC(F)(F)F)c(C#N)c4)c2=O)[C@H](C)N(C(=O)c2cc4cc(C5CCOC(C)(C)C5)ccc4n2[C@@]2(c4nc(=O)o[nH]4)C[C@@H]2C)CC3)cc(C)c1F (stereo partly drawn)
Resp: high group

Req: // return the class label for Cc1cc(-n2nc3c(c2-n2ccn(-c4ccc5c(c4)CCS5(=O)=O)c2=O)[C@H](C)N(C(=O)c2cc4cc([C@H]5CCOC(C)(C)C5)ccc4n2[C@@]2(c4nc(=O)o[nH]4)C[C@@H]2C)CC3)cc(C)c1F [Compound 56b]
Resp: low group

Req: // return the class label for Cc1cc(-n2nc3c(c2-n2ccn(-c4ccc(C#N)c(C5CC5)c4)c2=O)[C@H](C)N(C(=O)c2cc4cc(C5CCOC(C)(C)C5)ccc4n2[C@@]2(c4nc(=O)o[nH]4)C[C@@H]2C)CC3)cc(C)c1F (stereo partly drawn)
Resp: middle group

Req: // return the class label for Cc1cc(C#N)ccc1-n1ccn(-c2c3c(nn2-c2cc(C)c(F)c(C)c2)CCN(C(=O)c2cc4cc(C5CCOC(C)(C)C5)ccc4n2[C@@]2(c4nc(=O)o[nH]4)C[C@@H]2C)[C@H]3C)c1=O (stereo partly drawn)
Resp: high group

Req: // return the class label for `Cc1cc(-n2nc3c(c2-n2ccn(-c4ccc(C(=O)N(C)C5CC5)c(OC(F)(F)F)c4)c2=O)[C@H](C)N(C(=O)c2cc4cc([C@H]5CCOC(C)(C)C5)ccc4n2[C@@]2(c4nc(=O)o[nH]4)C[C@@H]2C)CC3)cc(C)c1F`
Resp: low group

Req: // return the class label for Cc1cc(-n2nc3c(c2-n2ccn(-c4ccc(C#N)cc4F)c2=O)[C@H](C)N(C(=O)c2cc4cc([C@@H]5CCOC(C)(C)C5)ccc4n2[C@@]2(c4nc(=O)o[nH]4)C[C@@H]2C)CC3)cc(C)c1F [Compound 81a]
Resp: high group

Req: // return the class label for Cc1cc(-n2nc3c(c2-n2ccn(-c4ccc(C#N)c(C(F)(F)F)c4)c2=O)[C@H](C)N(C(=O)c2cc4cc(C5CCOC(C)(C)C5)ccc4n2[C@@]2(c4nc(=O)o[nH]4)C[C@@H]2C)CC3)cc(C)c1F (stereo partly drawn)
Resp: middle group
